# Test system: HIV-1 strain Ba-L
# assay_method_text: HIV-1 Ba-L growth inhibition in primary macrophages (p24 ELISA)
# Type: cell-based
# applied_conditions: calculated by formula from TC50 and IC50; HIV-1Ba-L in primary macrophages
Entries and their measured AI (Antiviral Index) follow.
observable: AI (Antiviral Index)

{"structure_as_smiles": "N=C(N)NC(=O)c1ccc2c(-c3ccsc3)cccc2c1", "measured_value": ">100"}
{"structure_as_smiles": "Cn1cc(-c2cccc3cc(C(=O)NC(=N)N)ccc23)cn1", "measured_value": ">80"}
{"structure_as_smiles": "N=C(N)NC(=O)/C=C/c1cccc(C(=O)c2ccccc2)c1", "measured_value": "28-550"}
{"structure_as_smiles": "Cc1cccc2cc(C(=O)NC(=N)N)ccc12", "measured_value": ">192"}
{"structure_as_smiles": "N=C(N)NC(=O)/C=C/c1cccc2c1OCO2", "measured_value": ">91"}
{"structure_as_smiles": "N=C(N)NC(=O)/C=C/c1cccc2c1CCC2", "measured_value": ">10"}
{"structure_as_smiles": "COc1ccc2cc(C(=O)NC(=N)N)ccc2c1Br", "measured_value": ">1000"}

###

# assayed_system: Den M (Dengue virus type 1, UniProt P33478)
# Construct: expressed in transfected cells
# Sequence (P33478 206-280): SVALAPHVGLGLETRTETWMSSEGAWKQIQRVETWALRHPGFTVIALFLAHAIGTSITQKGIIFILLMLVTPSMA
# assay_method_text: Bacterial bioassay, Den M
# Format: cell-based
# Design: scale not given here
# applied_conditions: mean bacterial bioassay score; M protein of Dengue virus

{"compound": "N=C(N)NC(=O)C=CC=Cc1ccccc1Br [BIT128, reference compound]", "Average Bacterial Assay Score, Den M": 2.87}
{"compound": "N=C(N)NC(=O)c1ccc2c(-c3ccsc3)cccc2c1", "Average Bacterial Assay Score, Den M": 1.3}
{"compound": "N=C(N)NC(=O)c1ccc2c(Br)cccc2c1", "Average Bacterial Assay Score, Den M": 2.10}
{"compound": "N=C(N)NC(=O)c1ccc2c(Cl)cccc2c1", "Average Bacterial Assay Score, Den M": 3.00}
{"compound": "N=C(N)NC(=O)C=Cc1ccc(Cl)c(Cl)c1", "Average Bacterial Assay Score, Den M": 3.40}
{"compound": "Cc1ccc2cc(C(=O)NC(=N)N)ccc2c1", "Average Bacterial Assay Score, Den M": 2.53}
{"compound": "Cc1nn(C)c(C)c1-c1cccc2cc(C(=O)NC(=N)N)ccc12", "Average Bacterial Assay Score, Den M": 0.00}
{"compound": "CC(=O)O.Cn1cc(-c2ccc3cc(C(=O)NC(=N)N)ccc3c2)cn1", "Average Bacterial Assay Score, Den M": 1.60}
{"compound": "CC(=O)Nc1ccc(-c2cccc3cc(C(=O)NC(=N)N)ccc23)cc1", "Average Bacterial Assay Score, Den M": 0.40}
{"compound": "Cc1cccc2cc(C(=O)NC(=N)N)ccc12", "Average Bacterial Assay Score, Den M": 1.3}
{"compound": "N=C(N)NC(=O)c1ccc2c(-c3ccoc3)cccc2c1", "Average Bacterial Assay Score, Den M": 1.60}
{"compound": "N=C(N)NC(=O)c1ccc2c(C3CC3)cccc2c1", "Average Bacterial Assay Score, Den M": 2.25}
{"compound": "N=C(N)NC(=O)c1ccc2c(-c3ccccc3Cl)cccc2c1", "Average Bacterial Assay Score, Den M": 0.50}
{"compound": "N=C(N)NC(=O)c1ccc2c(-c3ccccc3)cccc2c1", "Average Bacterial Assay Score, Den M": 2.40}
{"compound": "COc1c(C(=O)NC(=N)N)ccc2ccccc12", "Average Bacterial Assay Score, Den M": 0.50}
{"compound": "COc1cc(C(=O)NC(=N)N)c(OC)c2ccccc12", "Average Bacterial Assay Score, Den M": 1.90}
{"compound": "COc1cc2ccccc2cc1C(=O)NC(=N)N", "Average Bacterial Assay Score, Den M": 0.50}
{"compound": "Cn1cc(-c2cccc3cc(C(=O)NC(=N)N)ccc23)cn1", "Average Bacterial Assay Score, Den M": 0.9}

Reference source: patent US9440926B2
